Origin of measurements: patent US10106550B2

- ASSAY_NAME: Preliminary pharmacokinetics study in SD rats (single intravenous injection or oral gavage, plasma LC-MS/MS)
- Type: in vivo
- COND: male, Sprague-Dawley (SD), rat, in vivo, single intravenous injection, 5 mg/kg, read-out: VdSS
MEASURE_NAME: Vd
# answer = value followed by unit

Vd in this record for Cl.O=c1[nH]nc2c3c(cccc13)N=C1CNCCN12 [Compound A1] : 1.11 L/kg

----------
- ASSAY_NAME: Preliminary pharmacokinetics study in SD rats (single intravenous injection or oral gavage, plasma LC-MS/MS)
- Assay type: in vivo
- COND: male, Sprague-Dawley (SD), rat, in vivo, single oral gavage, 10 mg/kg
MEASURE_NAME: AUC(0-inf) (ng·h/mL)
Please reply with the bare figure in ng·h/mL and do not write the unit itself.

response.value for Cl.O=c1[nH]nc2c3c(cccc13)N=C1CNCCN12 [Compound A1] (field: AUC(0-inf)) = 5740

----------
- ASSAY_NAME: Preliminary pharmacokinetics study in SD rats (single intravenous injection or oral gavage, plasma LC-MS/MS)
- Assay type: in vivo
- COND: male, Sprague-Dawley (SD), rat, plasma, single oral gavage, 10 mg/kg
This section presents compounds with their documented AUC(0-t) values.
Record the result as number plus unit.

CN1CCN2C(=Nc3cccc4c(=O)[nH]nc2c34)C1 2340 ng·h/mL

For reference, reported AUC(0-t) for "C=C(C)CCN1CCN2C(=Nc3cccc4c(=O)[nH]nc2c34)C1" stands at 264 ng·h/mL

----------
Each entry below carries its reported Cmax.
- ASSAY_NAME: Preliminary pharmacokinetics study in SD rats (single intravenous injection or oral gavage, plasma LC-MS/MS)
- Assay type: in vivo
- COND: male, Sprague-Dawley (SD), rat, plasma, single oral gavage, 10 mg/kg
# unit: ng/mL | format: bare number

CN1CCN2C(=Nc3cccc4c(=O)[nH]nc2c34)C1 1860

Measured Cmax of "C=C(C)CCN1CCN2C(=Nc3cccc4c(=O)[nH]nc2c34)C1" : 259

----------
- ASSAY_NAME: Preliminary pharmacokinetics study in SD rats (single intravenous injection or oral gavage, plasma LC-MS/MS)
- Format: in vivo
- COND: male, Sprague-Dawley (SD), rat, plasma, single oral gavage, 10 mg/kg
MEASURE_NAME: AUC(0-inf) (ng·h/mL)
Answer in ng·h/mL, number only, no unit symbol.

MOLECULE	UNIT_OF_MEASUREMENT	MEASURED_NUMBER
CN1CCN2C(=Nc3cccc4c(=O)[nH]nc2c34)C1 [Compound A3]	ng·h/mL	2310

Now turn to the next molecule.
# molecule C=C(C)CCN1CCN2C(=Nc3cccc4c(=O)[nH]nc2c34)C1 [Compound A6] ; its AUC(0-inf) = 271

----------
- ASSAY_NAME: Preliminary pharmacokinetics study in SD rats (single intravenous injection or oral gavage, plasma LC-MS/MS)
- Type: in vivo
- COND: male, Sprague-Dawley (SD), rat, in vivo, single oral gavage, 10 mg/kg
MEASURE_NAME: half-life (min)
Give your result in min as a bare value.

# half-life of "Cl.O=c1[nH]nc2c3c(cccc13)N=C1CNCCN12" = 80.4

----------
- ASSAY_NAME: Preliminary pharmacokinetics study in SD rats (single intravenous injection or oral gavage, plasma LC-MS/MS)
- Assay type: in vivo
- COND: male, Sprague-Dawley (SD), rat, in vivo, single oral gavage, 10 mg/kg
MEASURE_NAME: AUC(0-t) (ng·h/mL)
State just the number; it will be interpreted in ng·h/mL.

Entry "Cl.O=c1[nH]nc2c3c(cccc13)N=C1CNCCN12" — recorded AUC(0-t) = 5710
